Tested on: KU-812
ASSAY PROTOCOL: cell viability (% survival relative to DMSO control, bortezomib = 0%); higher = less cytotoxic
ASSAY CONTEXT: 100 nM; 72 h
cell viability values, listed per item
Report the value in % with no unit label.

Completed entries (count: 2):
[[record]]
compound = "Cc1cn([C@H]2C[C@H](O)[C@@H](COP(=O)(O)OP(=O)(O)O)O2)c(=O)[nH]c1=O [Thymidine diphosphate]"
obs_value = 109

[[record]]
compound = "Cc1coc2c1C(=O)C(=O)c1c-2ccc2c1CCCC2(C)C [Tanshinone IIA]"
obs_value = 93.1


// moving on: another record for cell viability
Record O=C1c2cc([N+](=O)[O-])ccc2-n2c1nc1ccccc1c2=O [GNF-Pf-3777] ; system KU-812; cell viability = 87.9
